Target: Ecm22 (UniProt Q05958)
Sequence: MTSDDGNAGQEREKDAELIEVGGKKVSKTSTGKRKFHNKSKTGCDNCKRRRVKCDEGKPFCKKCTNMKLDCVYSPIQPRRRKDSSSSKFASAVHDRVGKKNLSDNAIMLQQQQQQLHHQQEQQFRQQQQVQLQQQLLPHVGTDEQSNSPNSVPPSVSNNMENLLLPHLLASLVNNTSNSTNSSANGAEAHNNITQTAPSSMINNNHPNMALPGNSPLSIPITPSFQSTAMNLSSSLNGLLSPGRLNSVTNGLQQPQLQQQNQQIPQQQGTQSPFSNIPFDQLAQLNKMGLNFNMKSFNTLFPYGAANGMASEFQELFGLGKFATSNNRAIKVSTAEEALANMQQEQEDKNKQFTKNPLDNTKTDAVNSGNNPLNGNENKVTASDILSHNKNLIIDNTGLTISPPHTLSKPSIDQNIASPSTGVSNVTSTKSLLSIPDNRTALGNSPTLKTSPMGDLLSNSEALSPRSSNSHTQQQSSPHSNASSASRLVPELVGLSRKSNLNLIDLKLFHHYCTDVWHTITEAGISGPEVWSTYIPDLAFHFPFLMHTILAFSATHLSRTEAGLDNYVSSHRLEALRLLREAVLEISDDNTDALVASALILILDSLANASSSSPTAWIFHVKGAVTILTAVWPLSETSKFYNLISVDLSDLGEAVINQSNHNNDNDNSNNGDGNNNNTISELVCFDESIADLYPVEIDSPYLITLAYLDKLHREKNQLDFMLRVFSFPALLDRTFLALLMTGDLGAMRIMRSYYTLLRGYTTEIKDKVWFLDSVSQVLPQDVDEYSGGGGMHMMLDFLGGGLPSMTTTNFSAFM
Assay: PBM E-score (8-mer binding enrichment) (E-score (-0.5 to 0.5)); higher = stronger / more preferred TF binding
Settings: protein concentration: 200 nM; construct: GST-full length
Whole data set: some 33,000 sequences, median “E-score (-0.5 to 0.5)” near -0.041, cut for the highest 2% near 0.37. The list comes from a sample in which the highest values are over-represented; it also holds close analogues and randomly drawn sequences.
Class key for PBM E-score values: c1 = under 0.1, c2 = from 0.1 up to 0.2, c3 = 0.2 and over

INSERT INTO assay_data (construct_sequence, answer_label) VALUES
  ('CTTAACGA', 'c3'),
  ('AAGCTTCA', 'c1'),
  ('ACCGAGCT', 'c3'),
  ('ACTTCGTG', 'c2'),
  ('CCGAGAAA', 'c3'),
  ('TAGTCCGA', 'c2'),
  ('AACAACTT', 'c1'),
  ('GGCACAAA', 'c1'),
  ('GGTTCGTA', 'c3'),
  ('CTTAACGC', 'c1'),
  ('ATTAACGC', 'c2'),
  ('CGTTCAAC', 'c3'),
  ('ACGAGAAG', 'c3');

----------
Target: Ecm22 (UniProt Q05958)
Sequence: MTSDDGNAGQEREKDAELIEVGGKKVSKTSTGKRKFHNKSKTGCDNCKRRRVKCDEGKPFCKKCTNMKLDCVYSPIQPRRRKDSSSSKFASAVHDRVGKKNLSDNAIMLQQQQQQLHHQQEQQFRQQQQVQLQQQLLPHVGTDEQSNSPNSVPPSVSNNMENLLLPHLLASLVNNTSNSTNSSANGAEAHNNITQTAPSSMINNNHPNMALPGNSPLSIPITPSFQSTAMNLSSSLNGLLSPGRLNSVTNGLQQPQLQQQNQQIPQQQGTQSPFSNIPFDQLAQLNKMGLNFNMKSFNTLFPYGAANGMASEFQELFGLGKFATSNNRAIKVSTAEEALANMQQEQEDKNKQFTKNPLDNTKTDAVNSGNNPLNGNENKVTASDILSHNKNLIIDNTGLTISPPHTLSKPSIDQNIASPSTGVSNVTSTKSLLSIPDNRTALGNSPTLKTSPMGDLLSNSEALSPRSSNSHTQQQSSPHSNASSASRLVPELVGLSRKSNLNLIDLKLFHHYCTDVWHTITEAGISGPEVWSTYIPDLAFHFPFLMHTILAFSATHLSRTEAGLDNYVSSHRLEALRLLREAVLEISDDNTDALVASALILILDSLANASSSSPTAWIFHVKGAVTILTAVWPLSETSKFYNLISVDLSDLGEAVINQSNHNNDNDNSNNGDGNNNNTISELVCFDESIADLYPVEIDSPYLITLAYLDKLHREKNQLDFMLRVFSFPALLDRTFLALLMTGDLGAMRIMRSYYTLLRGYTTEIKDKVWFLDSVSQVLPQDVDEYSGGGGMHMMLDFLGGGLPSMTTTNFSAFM
Experiment: PBM E-score (8-mer binding enrichment) (E-score (-0.5 to 0.5)); higher = stronger / more preferred TF binding
Details: protein concentration: 200 nM; construct: GST-full length
Whole data set: some 33,000 sequences, median “E-score (-0.5 to 0.5)” near -0.041, cut for the highest 2% near 0.37. For the sample, the highest values were picked, then their nearest neighbours and some sequences at random.
readout.kind: PBM E-score

INSERT INTO measurements (construct_sequence, readout_kind, reported) VALUES
  ('ACTGCTAC', 'PBM E-score', 0.00971),
  ('CTCGTTGA', 'PBM E-score', 0.277),
  ('GCCGTACC', 'PBM E-score', 0.441),
  ('ACAAACGC', 'PBM E-score', 0.174),
  ('ACAAACGG', 'PBM E-score', 0.226),
  ('GAACTTGC', 'PBM E-score', -0.0845),
  ('TCAAACGA', 'PBM E-score', 0.452),
  ('ATATCAAC', 'PBM E-score', -0.103),
  ('CCACGAAA', 'PBM E-score', -0.0672),
  ('AGCGGGAG', 'PBM E-score', -0.188),
  ('TCCGTACA', 'PBM E-score', 0.379),
  ('GCAAACGC', 'PBM E-score', 0.0881),
  ('CCAAACGC', 'PBM E-score', 0.177);

----------
Biological target: Ecm22 (UniProt Q05958)
Sequence: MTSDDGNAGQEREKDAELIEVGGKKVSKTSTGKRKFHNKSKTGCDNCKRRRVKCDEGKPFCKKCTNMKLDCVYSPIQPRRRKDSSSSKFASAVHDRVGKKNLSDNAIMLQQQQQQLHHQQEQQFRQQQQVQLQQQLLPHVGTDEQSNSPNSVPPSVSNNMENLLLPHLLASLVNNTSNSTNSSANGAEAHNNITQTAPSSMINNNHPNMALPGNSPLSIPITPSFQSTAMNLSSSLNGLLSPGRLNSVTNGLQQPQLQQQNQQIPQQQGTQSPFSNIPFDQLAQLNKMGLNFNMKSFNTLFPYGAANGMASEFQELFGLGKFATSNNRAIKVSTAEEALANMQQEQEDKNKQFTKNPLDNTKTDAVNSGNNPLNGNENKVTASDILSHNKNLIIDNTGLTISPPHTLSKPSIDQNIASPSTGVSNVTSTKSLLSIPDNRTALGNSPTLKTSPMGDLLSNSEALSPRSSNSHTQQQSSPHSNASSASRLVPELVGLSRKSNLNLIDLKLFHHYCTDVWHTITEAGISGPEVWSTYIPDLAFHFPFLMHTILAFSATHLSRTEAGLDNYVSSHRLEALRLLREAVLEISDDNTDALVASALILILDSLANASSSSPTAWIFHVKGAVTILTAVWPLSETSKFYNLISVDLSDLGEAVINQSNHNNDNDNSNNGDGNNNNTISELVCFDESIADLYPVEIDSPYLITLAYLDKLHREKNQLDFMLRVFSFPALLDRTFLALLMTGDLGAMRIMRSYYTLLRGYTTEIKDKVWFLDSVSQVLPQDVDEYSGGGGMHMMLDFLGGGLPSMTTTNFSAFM
Test: PBM E-score (8-mer binding enrichment) (E-score (-0.5 to 0.5)); higher = stronger / more preferred TF binding
Conditions: protein concentration: 200 nM; construct: GST-full length
Over roughly 33,000 sequences, “E-score (-0.5 to 0.5)” has its median near -0.041; the highest 2% begin near 0.37. This is one part of a sample in which the highest values are shown more often than they occur.
Where PBM E-score equals or exceeds 0.2, the correct label is met; where it does not, the label is not met.

INSERT INTO measurements (construct_sequence, answer_label) VALUES
  ('ACGGTCAA', 'met'),
  ('CTCGCATC', 'met'),
  ('TGAGTAAA', 'not met'),
  ('AGTCGTTG', 'not met'),
  ('CCCTCAAA', 'not met'),
  ('CGCCGTTC', 'met'),
  ('ATGCAAAG', 'not met'),
  ('GATATAAC', 'not met'),
  ('AAAACGAG', 'met'),
  ('CCCCTCGG', 'met'),
  ('AACTGCAT', 'not met'),
  ('ACTACGGC', 'not met'),
  ('CTAACGAC', 'met'),
  ('CCGCAATA', 'not met'),
  ('ACCGGATC', 'not met'),
  ('CTGACGTA', 'not met'),
  ('AGAGGGGG', 'not met'),
  ('AGCCAATG', 'not met'),
  ('AAAACGAC', 'met'),
  ('CAAACGAG', 'met'),
  ('ACATCTAT', 'not met'),
  ('GACCTACA', 'not met'),
  ('CCACAGTC', 'not met'),
  ('AGCGCTAT', 'not met'),
  ('GGTCGTTA', 'met'),
  ('CTGTGCCA', 'not met'),
  ('CACTATCA', 'not met'),
  ('GAAACGAC', 'met'),
  ('GAAGAAGA', 'not met');
